meta.source: patent US20230235040A1

testedTarget: T1, hu-IL-36γ (human IL-36γ, N-terminally truncated active form S18-D169) (human, UniProt Q9NZH8 18-169); also: test concentration or dose not given here
T1 sequence: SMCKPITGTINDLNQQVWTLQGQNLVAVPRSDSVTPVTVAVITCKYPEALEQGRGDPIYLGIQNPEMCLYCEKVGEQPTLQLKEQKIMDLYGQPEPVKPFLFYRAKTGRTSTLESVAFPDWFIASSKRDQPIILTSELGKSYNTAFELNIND
assayProcedure: cell-based or functional assay
assayMetric: % Inhibition, HEK-Blue IL-36R SEAP reporter assay (%)
Enter your answer as a number in %; do not include the unit.

| binder | experimentalValue |
| --- | --- |
| mAb5.0 Fab (yeast clone culture supernatant) (Fab, V domains shown, Human Fab secreted by the yeast clone, not purified) VH: EVQLLESGGGLVQPGGSLRLSCAASGFTFSTYAMSWVRQAPGKGLEWVSGISGGSGYTYYADSVKGRFTISRDNSKNTLYLQMNSLRAEDTAVYYCARVVTYRDPPASFDYWGQGTLVTVSS VL: QSVLTQPPSVSGAPGQRVTISCTGSSSNIGAHYDVHWYQQLPGTAPKLLIYGNDNRPSGVPDRFSGSKSGTSASLAITGLQAEDEADYYCQSYDYSLKAYVFGGGTKLTVL | 75 |

Task item: Please look up its % Inhibition, HEK-Blue IL-36R SEAP reporter assay: mAb1.0 Fab (yeast clone culture supernatant) (Fab, V domains shown, Human Fab secreted by the yeast clone, not purified) VH: QVQLVESGGGVVQPGRSLRLSCAASGFSFSAYAMHWVRQAPGKGLEWVAVISYDGTNEYYADSVKGRFTISRDNSKNTLYLQMNSLRAEDTAVYYCARGIRIFTSYFDSWGQGTLVTVSS VL: QSVLTQPPSVSGAPGQRVTISCTGSSSNIGAHYDVHWYQQLPGTAPKLLIYSNNNRPSGVPDRFSGSKSGTSASLAITGLQAEDEADYYCQSYDYSLRGYVFGGGTKLTVL
Reply: 31

Task item: Please look up its % Inhibition, HEK-Blue IL-36R SEAP reporter assay: mAb3.0 Fab (yeast clone culture supernatant) (Fab, V domains shown, Human Fab secreted by the yeast clone, not purified) VH: QLQLQESGPGLVKPSETLSLTCTVSGGSISSTSYYWGWIRQPPGKGLEWIGSIHYSGNTYYNPSLKSRVTISVDTSKNQFSLKLSSVTAADTAVYYCARVHYGGYIPRRFDHWGQGTLVTVSS VL: QSVLTQPPSVSGAPGQRVTISCTGSSSNIGAGYDVHWYQQLPGTAPKLLIYGNTNRPSGVPDRFSGSKSGTSASLAITGLQAEDEADYYCQSYDYSLRGYVFGGGTKLTVL
Reply: 64

Task item: Please look up its % Inhibition, HEK-Blue IL-36R SEAP reporter assay: mAb4.0 Fab (yeast clone culture supernatant) (Fab, V domains shown, Human Fab secreted by the yeast clone, not purified) VH: QLQLQESGPGLVKPSETLSLTCTVSGGSIGSRSYYWGWIRQPPGKGLEWIGSIHYSGTTYYNPSLKSRVTISVDTSKNQFSLKLSSVTAADTAVYYCARVAPSYPRVFDYWGQGTLVTVSS VL: QSVLTQPPSVSGAPGQRVTISCTGSSSNIGAGYDVHWYQQLPGTAPKLLIYGNRNRPSGVPDRFSGSKSGTSASLAITGLQAEDEADYYCQSYDYSLRVYVFGGGTKLTVL
Reply: 57
